target: T1, human CD117 ectodomain (human, UniProt P10721 26-524, biotinylated (BirA co-expression) where captured on streptavidin biosensors); experiment: BLI (Octet), biotinylated ectodomain on SA biosensor, 1:1 global fit, monomeric Fc
T1 construct: extracellular domain; also called cKIT; full length AviTagged CD117 ectodomain; not shown: C-terminal AviTag or His tag
T1 sequence (P10721 26-524): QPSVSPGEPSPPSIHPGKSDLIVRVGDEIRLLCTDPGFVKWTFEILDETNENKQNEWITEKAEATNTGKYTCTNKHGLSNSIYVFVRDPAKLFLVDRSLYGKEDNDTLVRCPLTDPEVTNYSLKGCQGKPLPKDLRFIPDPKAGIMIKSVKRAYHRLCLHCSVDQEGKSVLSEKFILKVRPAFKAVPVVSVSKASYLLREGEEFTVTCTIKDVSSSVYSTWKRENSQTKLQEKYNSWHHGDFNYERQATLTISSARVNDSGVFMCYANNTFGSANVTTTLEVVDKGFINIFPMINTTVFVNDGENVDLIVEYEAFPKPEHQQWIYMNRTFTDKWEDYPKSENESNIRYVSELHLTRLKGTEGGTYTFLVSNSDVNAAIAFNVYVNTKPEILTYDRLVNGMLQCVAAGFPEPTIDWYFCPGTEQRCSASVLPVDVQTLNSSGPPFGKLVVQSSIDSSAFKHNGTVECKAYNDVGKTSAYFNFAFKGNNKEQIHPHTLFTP
ENDPOINT LABEL: pKd
pKd here: minus log base 10 of the concentration, concentration in moles per litre.

P-0037 (Fc fusion, Any second Fc chain without VHH is not described in the text; also called monovalent form of P37; not shown: Fc fragment) QVQLVESGGGLVQAGDSLRLSCAVSGRTLSNYFMAWLRQAPGKEREFVAAIHWSLGSTYYQDPVKGRFTISRDKAKNTVYLQMNTLKPEDTATYICAAGQHLSGLGGSAWSIEGDYWGQGTQVTVSS    7.55

Now for a further binder.
Query: Need pKd, item P-0032 (Fc fusion, Any second Fc chain without VHH is not described in the text; also called monovalent form of P32; not shown: Fc fragment) QVQLVESGGGLVQAGDSLRLSCAASGRTFSSYAMGWFRQAPGKEREFVASITSSGLVAYYGDSVEARFTISRDNAKNTVYLQMDSLKPEDTAVYYCAARQYVGSGSYYLKKEGGYEYWGPGTQVTVSS
Result: 8.73
